The reported measurements were obtained from ChEMBL document CHEMBL2346580.

- target_entity: Stromelysin-1 (Homo sapiens) (UniProt P08254)
- Sequence (P08254 100-477 limits assumed): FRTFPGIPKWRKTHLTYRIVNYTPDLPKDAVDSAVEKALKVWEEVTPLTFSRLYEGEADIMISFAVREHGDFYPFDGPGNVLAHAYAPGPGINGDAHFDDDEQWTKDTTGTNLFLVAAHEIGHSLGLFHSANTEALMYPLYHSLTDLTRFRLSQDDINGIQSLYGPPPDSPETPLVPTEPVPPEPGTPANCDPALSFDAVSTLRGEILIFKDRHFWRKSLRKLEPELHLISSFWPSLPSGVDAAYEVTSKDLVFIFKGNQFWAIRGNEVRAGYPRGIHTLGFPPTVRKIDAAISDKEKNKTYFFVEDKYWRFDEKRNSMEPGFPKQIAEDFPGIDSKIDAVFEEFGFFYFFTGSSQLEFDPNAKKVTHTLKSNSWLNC
- method_notes: Inhibition of MMP3 (unknown origin)
measure_name: INH (µM)
Numbers only, in µM.

CCC(C(=O)O)N1Cc2sc(-c3ccccc3)cc2S1(=O)=O (racemic) :: 12
CCC(C(=O)O)N1Cc2sc(-c3ccc(-c4ccccc4)cc3)cc2S1(=O)=O (racemic) :: 1.2
CC(C)[C@H](NS(=O)(=O)c1ccc(-c2ccccc2)cc1)C(=O)O :: 0.038
CCC(C(=O)NO)N1Cc2sc(-c3ccc(-c4ccccc4)cc3)cc2S1(=O)=O (racemic) :: 20

Turning to the following molecule.
Ask: Note down INH recorded for CCC(C(=O)NO)N1Cc2sc(-c3ccccc3)cc2S1(=O)=O (racemic)
Reply: 5.1

====

Give measured INH for each item. Keep answers brief.
- target_entity: A disintegrin and metalloproteinase with thrombospondin motifs 5 (Homo sapiens)
- method_notes: Inhibition of ADAMTS5 (unknown origin) using QF-peptide containing an aggrecanase cleavage site by FRET assay

See these solved cases before continuing.
CCC(C(=O)O)N1Cc2sc(C#Cc3ccc(N(C)C)cc3)cc2S1(=O)=O (racemic) :: 1.5 µM
CCC(C(=O)O)N1Cc2sc(-c3ccc(-c4cccnc4)cc3)cc2S1(=O)=O (racemic) :: > 10 µM

Then there is this compound:
Ask: Please look at this compound and report its INH: CCC(C(=O)O)N1Cc2sc(-c3ccc(-c4cnn(C)c4)cc3)cc2S1(=O)=O (racemic)
Reply: > 10 µM

====

- target_entity: 72 kDa type IV collagenase (Homo sapiens) (UniProt P08253)
- Sequence (P08253 110-660 limits assumed): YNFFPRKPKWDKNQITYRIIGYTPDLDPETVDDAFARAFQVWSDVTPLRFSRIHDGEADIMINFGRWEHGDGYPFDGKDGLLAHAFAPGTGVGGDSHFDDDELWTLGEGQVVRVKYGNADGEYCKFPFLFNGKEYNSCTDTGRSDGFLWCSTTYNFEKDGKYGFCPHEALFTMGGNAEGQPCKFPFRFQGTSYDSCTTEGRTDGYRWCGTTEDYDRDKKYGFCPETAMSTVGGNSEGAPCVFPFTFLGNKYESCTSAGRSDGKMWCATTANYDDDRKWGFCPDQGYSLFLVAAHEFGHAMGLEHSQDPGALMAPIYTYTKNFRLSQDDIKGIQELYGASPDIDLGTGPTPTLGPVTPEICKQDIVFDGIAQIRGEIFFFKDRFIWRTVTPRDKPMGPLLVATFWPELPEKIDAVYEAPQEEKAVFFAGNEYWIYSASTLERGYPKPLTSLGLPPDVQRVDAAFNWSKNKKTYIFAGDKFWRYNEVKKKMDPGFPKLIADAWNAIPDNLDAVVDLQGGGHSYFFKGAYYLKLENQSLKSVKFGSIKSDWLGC
- method_notes: Inhibition of MMP2 (unknown origin)
Field: INH. Provide a value for each of the compounds that follow.
Give bare numbers, in µM.

Observe how each entry below is paired with its result.
CC(C)[C@H](NS(=O)(=O)c1ccc(-c2ccccc2)cc1)C(=O)O :: 0.04
CCC(C(=O)O)N1Cc2sc(-c3ccccc3)cc2S1(=O)=O (racemic) :: 16
CCC(C(=O)O)N1Cc2sc(-c3ccc(-c4ccc5cnn(C)c5c4)cc3)cc2S1(=O)=O (racemic) :: 4

Hey, can you go through the list below and give me INH for every item?
1. CCC(C(=O)O)N1Cc2sc(-c3ccc(-c4ccc5ccn(C)c5c4)cc3)cc2S1(=O)=O (racemic)
2. CCC(C(=O)O)N1Cc2sc(/C=C/c3ccc(C(F)(F)F)cc3)cc2S1(=O)=O (racemic)
3. CCC(C(=O)O)N1Cc2sc(-c3ccc(-c4ccccc4)cc3)cc2S1(=O)=O (racemic)

Reply:
[16.5, 2, 1.8]
